# Test system: HepG2
# assay notes: HepG2tox assay run with the liver stage assay
# Format: cell-based, human
# test conditions: read-out: HepG2 CC50 (life cycle profiling); two independent replicates
assay metric: CC50

Input line: Please give the documented CC50 of Cc1ccccc1-n1nnnc1C(c1cccnc1)N(Cc1cccc(C(F)(F)F)c1)C1CC1 (stereo not shown)
Output line: > 17 µM

====

# Test system: P. falciparum NF54-luc
# assay notes: Bioluminescence relative rate of kill
# Format: cell-based, Plasmodium falciparum
# test conditions: 6 h exposure, 30× to […] EC50, compared with benchmarks
assay metric: rate of kill profile in BRRoK assay

[[record]]
molecule = "Cc1ccccc1N(C)C(=O)C(c1cncnc1)N(Cc1cccc(C(F)(F)F)c1)C1CC1 (centres unmarked)"
result = "fast kill kinetics"

[[record]]
molecule = "CCC(C(=O)Nc1cccc(Cl)c1)N1C(=O)C(C)N=C(c2ccccc2)c2ccccc21 (centres unmarked)"
result = "slow kill kinetics"

[[record]]
molecule = "Cc1ccccc1-n1nnnc1C(c1cncnc1)N(Cc1cccc(C(F)(F)F)c1)C1CC1 (centres unmarked)"
result = "fast kill kinetics"

[[record]]
molecule = "CC(=O)c1ccc(NC(=O)c2ccc(NC(=O)C3COc4ccccc4O3)cc2)cc1 (centres unmarked)"
result = "slow kill kinetics"

